All figures here come from patent US6383490B1.

Experiment: Plasma cocaine levels by HPLC
Format: in vivo, rat
Conditions: Wistar, rat, plasma, ip; 15 mg/kg i.p.

Molecule: COC(=O)[C@H]1[C@@H](OC(=O)c2ccccc2)C[C@@H]2CC[C@H]1N2C [cocaine, (−)-cocaine]
half-life [min]: 25
